Values compiled from PubChem BioAssay (NCATS).

# targetUnderTest: Peroxisome proliferator-activated receptor gamma (Homo sapiens) (UniProt P37231)
# Sequence (P37231 whole entry, looked up): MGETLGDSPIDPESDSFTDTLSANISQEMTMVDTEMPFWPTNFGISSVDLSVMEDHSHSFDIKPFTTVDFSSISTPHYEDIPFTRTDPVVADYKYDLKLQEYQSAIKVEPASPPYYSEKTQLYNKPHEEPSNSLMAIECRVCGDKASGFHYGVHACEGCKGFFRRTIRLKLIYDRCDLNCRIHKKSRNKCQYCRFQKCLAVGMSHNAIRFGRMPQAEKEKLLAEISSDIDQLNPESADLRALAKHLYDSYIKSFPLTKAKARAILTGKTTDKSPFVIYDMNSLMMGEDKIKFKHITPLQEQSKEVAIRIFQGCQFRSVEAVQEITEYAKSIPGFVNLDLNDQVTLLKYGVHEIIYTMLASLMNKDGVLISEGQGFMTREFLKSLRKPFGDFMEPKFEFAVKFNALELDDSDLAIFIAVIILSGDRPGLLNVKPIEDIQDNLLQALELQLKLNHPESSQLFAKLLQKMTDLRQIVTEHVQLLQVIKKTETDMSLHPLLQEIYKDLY
# assayProcedure: qHTS assay for small molecule agonists of peroxisome proliferator-activated receptor gamma signaling (AID 588536)
# runConditions: HEK293 PPARg-UAS-bla, beta-lactamase ratio, 16 h; series mostly up to 76.7 µM
Inconclusive results are not listed. The source made the active and inactive calls. Calls follow the shape of the dose curve; as a rule, active = well fitted curve in the direction sought with a large enough effect in the signal ratio, with a control signal flat (not every such curve was filed as active); inconclusive = small, poorly fitted or top-dose-only effect, or effect the other way, or a change in a side signal; inactive = no such curve, though single readings can be large or run the other way; the % refers to the signal ratio.
Reply using exactly one outcome from Y (active), N (inactive)

Returns: the outcome recorded for CC(C)C1(C)N=C(c2ncccc2C(=O)O)NC1=O (configuration not stated) in this assay. N

Returns: the outcome recorded for CCCCCCCCCCCC#N in this assay. N

Recorded test outcome, item CC(C)(C#N)N=NC(C)(C)C#N N

Just curious, what result did CCOP(=O)(O)C(N)=O get here? N

Just curious, what result did FC(F)(F)c1ccc(Cl)cc1 get here? N

What outcome does the record of this test show for COCC(=O)N(c1c(C)cccc1C)[C@H](C)C(=O)OC ? N

Tell me the recorded outcome of this test for c1cc[n+]2c(c1)-c1cccc[n+]1CC2 . N

I'd appreciate the recorded outcome for CNC(=O)O/N=C/C(C)(C)S(C)(=O)=O from this test. N

What did this assay record as the result for CCC(C)n1c(=O)[nH]c(C)c(Br)c1=O (configuration not stated) ? N

Per the assay record, what outcome was assigned to CCOP(=S)(OCC)SCCl ? N

Test call for this compound, please: CCCC1COC(Cn2cncn2)(c2ccc(Cl)cc2Cl)O1 (configuration not stated) N

Returns: the outcome recorded for O=C(O)COc1ccc(Cl)cc1 in this assay. N

What is the recorded call for this compound in the test? O=P(O)(O)CN(CP(=O)(O)O)CP(=O)(O)O N

Recorded call for COc1ccc(-c2ccccc2)cc1NNC(=O)OC(C)C ? N

Entry CCOC(=O)C(Cl)Cc1cc(-n2nc(C)n(C(F)F)c2=O)c(F)cc1Cl (configuration not stated) : call = ? N

Hey, what did the test say about CC(C)C(C(=O)OC(C#N)c1cccc(Oc2ccccc2)c1)c1ccc(Cl)cc1 (configuration not stated) ? N

Please let me know the test result on file for O=[N+]([O-])c1cc(C(F)(F)F)cc([N+](=O)[O-])c1Cl . N

Per the assay record, what outcome was assigned to FC(F)(F)c1ccc(OCCCOc2c(Cl)cc(OCC=C(Cl)Cl)cc2Cl)nc1 ? N

Would you mind telling me which call this test gave Cc1ccc(-c2c(Cl)nc(C#N)n2S(=O)(=O)N(C)C)cc1 ? N

So what was the verdict on CCCCN(CC)C(=O)SCCC in this test? N

Status in this test for COC(=O)c1ccccc1CS(=O)(=O)NC(=O)Nc1nc(OC)cc(OC)n1 ? N

Test call for this compound, please: O=C=Nc1ccc(Cl)cc1 N

Hi, do you know how CCc1cnc(C2=NC(C)(C(C)C)C(=O)N2)c(C(=O)O)c1 (configuration not stated) came out in this test? N

Give the logged outcome of this assay for the following compound: CCOP(=O)(NC(C)C)Oc1ccc(S(C)=O)c(C)c1 (configuration not stated) N

Any idea what this test logged for CC(=NC#N)N(C)Cc1ccc(Cl)nc1 ? N

Give the logged outcome of this assay for the following compound: Nc1ccc([N+](=O)[O-])cc1Cl N

Which outcome was assigned to CC1(C)Cc2cccc(O)c2O1 in this test? N

GET /call?item= CC(C)COP(=O)(OCC(C)C)OCC(C)C returns the recorded outcome of this test. N

How was Clc1ccc(-c2cc(Cl)c(Cl)cc2Cl)cc1Cl classified in this test? N

Assay result, entry Cc1cc(C2CC2)nc(Nc2ccccc2)n1 — outcome? N

Tell me the recorded outcome of this test for CNC(=S)S . N

Which result was noted for this compound in the test: CCOP(=S)(OCC)Oc1ncn(-c2ccccc2)n1 N

Look up the recorded call for [Ga]#[As] in this test. N

Kindly provide the recorded test outcome for the following compound: O=S1OC[C@@H]2[C@H](CO1)[C@@]1(Cl)C(Cl)=C(Cl)[C@]2(Cl)C1(Cl)Cl (some centres not stated) N

In this assay, the call recorded for COP(=O)(OC)OC(Br)C(Cl)(Cl)Br (configuration not stated) was what? Y

Fill in: this test's call for OC(Cn1cncn1)(c1ccc(F)cc1)c1ccccc1F (configuration not stated) is ___ N

Identify the outcome logged in this assay for the compound shown: CNC(=O)Oc1ccc(N(C)C)c(C)c1 N

Per the records of this test, what outcome belongs to N#CN=C1SCCN1Cc1ccc(Cl)nc1 ? N

Per the assay record, what outcome was assigned to Cc1cc(Cl)ccc1N=CN(C)C ? N

What outcome does the record of this test show for CCOP(=S)(OCC)OC(Cl)C(Cl)(Cl)Cl (configuration not stated) ? N

How was CCOP(OCC)OCC classified in this test? N

What outcome does the record of this test show for CC(C)(C)N(NC(=O)c1ccc(Cl)cc1)C(=O)c1ccccc1 ? N

What call does the record list for CCC/C(=N\OCC)C1=C(O)CC(CC(C)SCC)CC1=O (configuration not stated) ? N

Which outcome did this test record for the compound CN(C)P(=O)(N(C)C)N(C)C ? N

How did this test come out for N#Cc1cc(Br)c(O)c(Br)c1 ? N

What outcome does the record of this test show for O=C(O)c1c(Cl)ccc2cc(Cl)cnc12 ? N

What was the test verdict on COc1ccc(O)c(C(C)(C)C)c1 ? N
